method: BET inhibitor-based combinations targeting novel dependencies in MECOM-rearranged (r) AML: MV-4-11 cell line (AID 2202233); note: nearly all actives have a fitted effect of over 45% in size
measurement-setup: MV-4-11 AML viability, CellTiter-Glo luminescence, 48 h; series mostly up to 46 µM
Records with an inconclusive call do not appear. Calls of active or inactive are those of the source. Calls come from the whole dose curve; as a rule, active = well fitted inhibition curve with a large enough effect; inconclusive = small, poorly fitted or top-dose-only effect; inactive = no such curve, though single readings can be large or run the other way.
Tick one outcome: true = active, false = inactive

[[record]]
compound = "CCN1CCC(n2cc(CNc3cc(Cl)c4ncc(C#N)c(Nc5ccc(F)c(Cl)c5)c4c3)nn2)CC1"
group = "true"

[[record]]
compound = "COc1cc(S(C)(=O)=O)ccc1Nc1nc2ccc(-c3ccc(NC(=O)[C@H](C)c4ccc(F)cc4)cc3)cn2n1"
group = "true"

[[record]]
compound = "CCC[C@H](N[C@@H](C)C(=O)N1[C@@H]2CCCC[C@H]2C[C@H]1C(=O)O)C(=O)OCC"
group = "false"

[[record]]
compound = "Nc1ncnc2c1ncn2[C@@H]1O[C@H](CO)C[C@H]1O"
group = "false"

[[record]]
compound = "CCCCNc1ncc(-c2ccc(CN3CCOCC3)cn2)c(NC2CCC(O)CC2)n1 (centres undefined)"
group = "true"

[[record]]
compound = "CN1CCN(c2ccc(OC(F)(F)F)c(Nc3ncc4c(n3)-c3c(c(C(N)=O)nn3CCO)CC4)c2)CC1"
group = "true"

[[record]]
compound = "Cc1nnc(C(=O)NC(C)(C)c2nc(C(=O)NCc3ccc(F)cc3)c(O)c(=O)n2C)o1"
group = "false"

[[record]]
compound = "CN1C(=O)N[C@@H](Cc2c[nH]c3c(Cl)cccc23)C1=O"
group = "false"


Pending compound:
Kindly provide the recorded test outcome for the following compound: CCc1cccc2c3c([nH]c12)[C@@](CC)(CC(=O)O)OCC3
false
